Biological target: T1, GST-LIM protein PDZ domain fusion protein (Human, UniProt Q96HC4 2-85)
T1 construct: also called Human LIM protein; not shown: glutathione S-transferase encoded by vector pGEX-3X (Pharmacia)
T1 sequence: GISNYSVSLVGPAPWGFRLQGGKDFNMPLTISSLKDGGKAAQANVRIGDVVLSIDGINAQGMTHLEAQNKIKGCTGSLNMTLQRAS
Assay: A/G assays
Ends that are not written are not given here. * marks the point of attachment. Biotin = O=C1N[C@H]2[C@H](CS[C@H]2CCCCC(=O)*)N1
Measurement Kind: binding result

Would you please look over these solved cases?
Biotin-SSSQSLESDGSYQKPSYIL (Only the last four residues are seen in the excerpts) [CD62E C-terminal peptide AA48L] = no binding
Biotin-DTPSSSYTQSTMDHDLHDAL (Only the last four residues are seen in the excerpts) [CC CKR-4 C-terminal peptide AA44L] = no binding
Biotin-PYGTAMEKAQLKPPATSDA (also called CD49E (alpha-4)) [CD49E C-terminal peptide AA11L, biotinylated] = no binding
Biotin-SPQPDSTDNDDYDDISAA [CD6 C-terminal peptide AA6L, biotinylated] = no binding
Biotin-SSKSKSSEESQTFFGLYKL (not fully specified, also called FasLigand; Fas ligand) [FasL C-terminal peptide AA23L-M, biotinylated] = no binding
Biotin-AWDDSARAAGGQGLHVTAL [LPAP C-terminal peptide AA30L, biotinylated] = no binding

Now take the following binder into account.
[Q] Requested field: binding result. Item: Biotin-ENLAPVTTFGKTNGYIA (also called CD148 (DEP-1)) [CD148 C-terminal peptide AA19L, biotinylated]
[A] no binding
